molecular target: T1, human IL-13 (recombinant E. coli-expressed) (human, UniProt P35225 35-146); experiment: Biacore T100 SPR, purified mAb captured on anti-human IgG, IL13 analyte, 1:1 fit
T1 construct: also called hIL-13
T1 sequence (P35225 other isoform, or with tags, fused parts or gaps limits assumed): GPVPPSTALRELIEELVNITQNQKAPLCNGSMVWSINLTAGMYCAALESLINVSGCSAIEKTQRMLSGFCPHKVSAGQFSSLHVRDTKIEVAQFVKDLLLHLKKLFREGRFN
Field: kon. Provide a value for each of the binders that follow.
Numeric answer only, unit M⁻¹ s⁻¹ assumed.

What value of measured kon is listed for A1Y100B ValL1 (antibody, human IgG1, kappa, V domains shown, CDRH3 variant of A1L1; also called A1Y100BVAL1; 829 (mAb)) VH: QVQLVQSGAEVKKPGSSVKVSCKASGFYIKDTYMHWVRQAPGQGLEWMGTIDPANGNTKYVPKFQGRVTITADESTSTAYMELSSLRSEDTAVYYCARSIYDDYHVDDYYAMDYWGQGTLVTVSS VL: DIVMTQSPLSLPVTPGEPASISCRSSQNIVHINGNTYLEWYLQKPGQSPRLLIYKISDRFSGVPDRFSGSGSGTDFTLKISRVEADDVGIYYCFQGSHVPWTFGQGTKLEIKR ? 776000

Request the reported kon associated with A1Y100B IleL1 (antibody, human IgG1, kappa, V domains shown, CDRH3 variant of A1L1) VH: QVQLVQSGAEVKKPGSSVKVSCKASGFYIKDTYMHWVRQAPGQGLEWMGTIDPANGNTKYVPKFQGRVTITADESTSTAYMELSSLRSEDTAVYYCARSIYDDYHIDDYYAMDYWGQGTLVTVSS VL: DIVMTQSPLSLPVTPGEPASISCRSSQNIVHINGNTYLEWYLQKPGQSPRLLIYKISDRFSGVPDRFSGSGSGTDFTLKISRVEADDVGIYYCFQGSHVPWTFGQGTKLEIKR 989000

Please give the measured kon for this binder: A1L1 (antibody, human IgG1, kappa, V domains shown, Humanised version of murine 6A1, human IgG1 kappa; also called parental; 586 (mAb)) VH: QVQLVQSGAEVKKPGSSVKVSCKASGFYIKDTYMHWVRQAPGQGLEWMGTIDPANGNTKYVPKFQGRVTITADESTSTAYMELSSLRSEDTAVYYCARSIYDDYHYDDYYAMDYWGQGTLVTVSS VL: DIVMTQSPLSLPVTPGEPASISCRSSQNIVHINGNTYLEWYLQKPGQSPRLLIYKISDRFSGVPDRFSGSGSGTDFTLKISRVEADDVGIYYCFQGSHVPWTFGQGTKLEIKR 1.13e+06
